Cited source: ChEMBL document CHEMBL4411269

clearance listing for selected molecules.
# EXPERIMENT SUMMARY: Clearance in Balb/c mouse at 2 mg/kg, iv
# Assay type: ADME, organism-based
# TEST CONTEXT: in vivo

{"columns": ["COMPOUND SMILES", "clearance"],
 "data": [
  ["C[C@]1(C(=O)[C@H](Cc2ccccc2)NC(=O)[C@H](CO)NC(=O)c2cccc(=O)[nH]2)CO1", "> 73 mL/min/kg"]
]}

With those in mind, consider the next molecule.
Ask: Given the entry `COc1ccc(C[C@H](NC(=O)[C@@H](C)NC(=O)[C@H]2CC[C@H](O)CC2)C(=O)N[C@@H](CC2=CCCC2)C(=O)[C@@]2(C)CO2)cc1` , report its measured clearance.
Reply: > 73 mL/min/kg
